test system: HOP-92 NSCLC; experiment: NCI tumour cell line growth inhibition, 48 h
Below is a list of entries, each paired with its recorded TGI value.
# value in µM; strip the unit string

Reference set, count: 5
O=C(Nc1cccc(-n2cc(-c3ccncc3)c(-c3ccc(Cl)c(O)c3)n2)c1)Nc1ccc(Cl)c(C(F)(F)F)c1 ... 1.29
O=c1c2cc(F)ccc2sc2c(N3CCNCC3)nc3ccccc3c12 ... 2.22
O=C(O)/C(=C/C(=O)c1ccc(Cl)cc1)NNc1ccc([N+](=O)[O-])cc1[N+](=O)[O-] ... 57.1
O=[N+]([O-])c1ccccc1S(=O)(=O)c1cc(O)cc2c1NCCC2 ... 16.8
CC(C)(C)OC(=O)C1C(=O)NC(=O)CC1CC(OCc1ccccc1)C(COCc1ccccc1)OCc1ccccc1 (centres undefined) ... 46.2

Per the records, this molecule ( `COc1ccc(SCc2cc(OC)c(OC)c(OC)c2)cc1OC` ) has TGI equal to 83.3

* * *

# reported TGI; entries follow
system: SK-OV-3 ovarian; assay: NCI tumour cell line growth inhibition, 48 h

Check out these entries, answers already filled in.
CCN(CC)C(=O)C[n+]1c2ccccc2n2cc(N)ccc21 ... > 100 µM
C=C1C(O)C23CCC4C(C(=O)O)(C(=O)O)CC(OC5OC(CO)C(O)C(OC(=O)CCc6ccccc6)C5NC(=O)CC(C)C)CC4(C)C2CCC1(O)C3 (stereo not drawn) ... > 100 µM
COc1cc(C=O)cc(/C=N/c2ccccn2)c1O ... 78 µM
CN(C)CCC=C1c2ccccc2C=Cc2ccccc21 ... 31.4 µM
CN(C)N=Nc1ccccc1 ... > 100 µM

Lab note: measured TGI of `N=C(N)N=Nc1ccc(NN=C(N)N)c2c1ncc1c2nc2sccn21` was > 100 µM

// sample `COc1cc(C[C@@H](C)N)cc(OC)c1` , its TGI was > 100 µM

The compound listed as O=C1C2C(C(=O)N1c1ccccc1)C1(Br)c3ccccc3C2(Br)C2C(=O)N(c3ccccc3)C(=O)C21 (stereo not drawn) shows TGI equal to > 100 µM

* * *

system: HS 578T breast; experiment: NCI tumour cell line growth inhibition, 48 h
Let's look at some compounds and their measured TGI.

Example results:
CC(=O)C1=C(c2ccccc2)N(C2OC(CO)C(O)C(O)C2O)C(S)=C(C#N)C1c1ccc(Cl)cc1 (configuration not stated) ... 78.5 µM
CCCCN1CCN(c2ccc3nc(-c4ccc5nc(-c6ccc(OC)c(OC)c6)[nH]c5c4)[nH]c3c2)CC1 ... 4.31 µM
CCOC(=O)Nn1c(C)nnc1CC#N ... > 100 µM
CC(=O)OC1CC2(C)C(OC(C)=O)CC1C2(C)C (configuration not stated) ... > 100 µM
Cc1cc(C)c(S(=O)(=O)N2CCN(S(=O)(=O)c3c(C)cc(C)cc3C)OCCCCCO2)c(C)c1 ... > 100 µM

Value of measured TGI for the entry OC1(c2ccccc2)c2ccccc2NC2=NCCN21 (configuration not stated) : > 100 µM

In plain terms, `COc1cc(OC)cc(-n2c(N)c(C#N)c3ccc([N+](=O)[O-])cc3c2=O)c1` has a documented TGI of 87.6 µM

Summary for this compound, `C#C[C@]1(O)CC[C@H]2[C@@H]3CCC4=CC(=NCCOC(=O)c5cccc6c(=O)c7ccccc7[nH]c56)CC[C@@H]4[C@H]3CC[C@@]21C` : TGI is > 100 µM

Kindly note the recorded TGI for Cc1ccc([N+](=O)[O-])cc1S(=O)(=O)Nc1ccc(C2=NN(C(=O)c3ccccc3)C(c3ccccc3)C2)cc1 (configuration not stated) , which is > 100 µM

response.value for C[C@@H]1C[N+]2([O-])[C@H]3C4=CCC[C@@H]4CC[C@H]3[C@@]3(C)OC(=O)CC[C@]34CC[C@H]1[C@@H]42 (some centres not stated) (field: TGI) = > 60 µM

Note to self: TGI recorded for `S=C(S)N1CCN(c2cccc(Cl)c2)CC1` was > 100 µM

Memo: `COc1cc(S(=O)(=O)Nc2nc(-c3ccc(N=Cc4cccs4)cc3)cs2)ccc1Cl` , reported TGI: > 100 µM

* * *

test system: SF-539 CNS; assay: NCI tumour cell line growth inhibition, 48 h
Known TGI of a selection of molecules

Some entries whose results are on file:
FC(F)(F)c1nnn[n-]1.[Au+].c1ccc([PH+](c2ccccc2)c2ccccc2)cc1 ... 19.4 µM
Nc1nc(/C=C\c2ccc([N+](=O)[O-])cc2)nc(N2CCN(c3ccccc3)CC2)n1 ... > 100 µM

Entry `NCCN.NCCN.[Cl-].[O]=[Os+2]=[O]` — recorded TGI = > 100 µM

The recorded TGI for entry `ClCc1ccc(-c2ccc(Cn3cnc4nc(Cl)nc(Cl)c43)cc2)cc1` equals 5.06 µM

Sample CC(C)(C)C1CCC2c3c([nH]c4ccccc34)C3C(=O)N(c4cccc([N+](=O)[O-])c4)C(=O)C3C2C1 (stereo not given) ; TGI observed: > 100 µM

* * *

TGI listing for selected compounds.
system: EKVX NSCLC; experiment: NCI tumour cell line growth inhibition, 48 h

Past entries and their recorded results:
CC(C)c1cc(Cl)nc(Cl)n1 ... > 100 µM
S=C(S)N1CCN(c2cccc(Cl)c2)CC1 ... > 100 µM
Cc1cc(N(CCC#N)CCC#N)ccc1/C=C\C(=O)Nc1ccccc1 ... > 100 µM
COC1CC(OC2C(C)OC(OC3C(C)OC(OC4C(C)OC(O[C@H]5CC[C@@]6(C)C(=CC[C@]7(O)[C@@H]6C[C@@H](OC(=O)/C=C(\C)C(C)C)[C@@]6(C)[C@]7(O)CC[C@@]6(O)C(C)=O)C5)CC4OC)CC3OC)CC2OC)OC(C)C1O (stereo not given in full) ... > 12.5 µM

Below: the item to evaluate.
Entry under test: `CCn1cc(C(=O)O)c(=O)c2cc(F)c(N3CCN(S(=O)(=O)c4ccc(Cl)cc4)CC3)cc21` . Its TGI was 9.89 µM

* * *

Parameter: TGI. Scope: all listed entries.
tested on: SNB-19 CNS; assay: NCI tumour cell line growth inhibition, 48 h

C1CSCCCSCCCSCCCSCCCSC1 ... > 100 µM
Fc1cnc(NC2CC2)nc1-c1cnc2ccc(N3CCOCC3)cn12 ... 17.7 µM
O=C1CCCCCCCCCCC(=O)N2CCOCCOCCN1Cc1cccc(n1)C2 ... > 100 µM
COc1ccc(C(=O)c2cc(OC)c3c(c2)OCO3)cc1O ... > 100 µM

TGI recorded for this compound, `COc1cc(S(=O)(=O)Nc2nc(-c3ccc(N=Cc4cccs4)cc3)cs2)ccc1Cl` , is > 100 µM

So for `O=C(O)/C(=C/C(=O)c1ccc(Cl)cc1)NNc1ccc([N+](=O)[O-])cc1[N+](=O)[O-]` , the logged TGI turned out to be > 100 µM

Value of TGI reported for the compound `O=C(Nc1ccc(CN2CCOCC2)cc1)c1ccc(-c2cc(Cl)ccc2Cl)o1` is 35.6 µM

compound `CN1CCN(C(=S)N(C(=O)c2cccs2)C2CCCCC2)CC1` , TGI observed: > 100 µM

Data point: O=C(CC1C(=O)Nc2ccccc2S1=O)Nc1ccccc1 (stereo not given) ; TGI = > 100 µM

Record summary for `O=C(Nc1cccc(-n2cc(-c3ccncc3)c(-c3ccc(Cl)c(O)c3)n2)c1)Nc1ccc(Cl)c(C(F)(F)F)c1` : reported TGI = 5.31 µM

* * *

tested on: HCT-15 colon; assay: NCI tumour cell line growth inhibition, 48 h
Listing of recorded TGI by entry.

CN(C)Cc1cc(N=Nc2ccccc2)ccc1O ... > 100 µM
O=C1Nc2ccccc2C1=Nc1ccc(S(=O)(=O)Nc2nccs2)cc1 ... > 100 µM
COc1cccc(/C=C2\CCC(CCN(C)C)(C3=CCCC3)C2=O)c1 (stereo not given) ... 31.1 µM

Turning to the following molecule.
Lab book: TGI of `O=[N+]([O-])c1ccc(C2=NN(c3ccccc3)C[N+](c3ccc(Br)cc3)=N2)cc1` noted as > 100 µM

* * *

tested on: HT29 colon; assay: NCI tumour cell line growth inhibition, 48 h
Below: a set of entries, each annotated with reported TGI.
Field: numeric (µM). Do not append units.

Here's what some known entries look like.
FC(F)(F)c1nnn[n-]1.[Au+].c1ccc([PH+](c2ccccc2)c2ccccc2)cc1 ... 13.2
CN(C)CCC=C1c2ccccc2C=Cc2ccccc21 ... 19.2

Now consider the entry below.
For reference, reported TGI for `COc1cc(C(=O)NC(CCN)(c2ccccc2)c2ccccc2)cc(OC)c1OC` stands at 28.3

* * *

test system: A549 NSCLC; assay: NCI tumour cell line growth inhibition, 48 h
The entries below come with measured TGI values attached.

CCOC(=O)[C@H]1O[C@@H]1C(=O)N[C@@H](CC(C)C)C(=O)NCCc1ccc(O)cc1 ... > 100 µM
C[C@@H]1C[N+]2([O-])[C@H]3C4=CCC[C@@H]4CC[C@H]3[C@@]3(C)OC(=O)CC[C@]34CC[C@H]1[C@@H]42 (stereo partly drawn) ... > 60 µM
COc1cc(NCCCCCN=C(N)N)c2ncccc2c1 ... > 100 µM

Recorded result, `Cn1c(O)c(C2=Nc3ccccc3C2=O)c2ccccc21` , TGI: > 100 µM

The recorded TGI for entry `O=[N+]([O-])c1ccc(C2=NN(c3ccccc3)C[N+](c3ccc(Br)cc3)=N2)cc1` equals > 100 µM

The measured TGI associated with CSc1ncc2c(n1)-c1ccccc1OC2N1CCCCC1 (stereo not drawn) reads > 100 µM

TGI reported for this molecule `Cc1cc(NS(=O)(=O)c2ccc(NC(=O)c3cccn4c(=O)c5ccccc5nc34)cc2)no1` : > 100 µM

Sample `[Cl-].[Cl-].[Cl-].[O-]c1cccc2cccnc12.[O-]c1cccc2cccnc12.[O]=[Mo]` ; TGI observed: > 100 µM

Memo: O=C1C2C=CC(n3[nH]c(=O)n(Cc4ccccc4)c3=O)CC2C(=O)N1c1cccc(Cl)c1 (stereo not drawn) , reported TGI: > 100 µM

Lookup result for O=C(O)CNC(=O)C(CS)Cc1ccccc1 (stereo not drawn) ; measured TGI: > 25 µM

Reported TGI of `CCOc1nc(-c2ccccc2)cc2c(O)c(C(=O)N/N=C/c3ccc(O)cc3O)[nH]c(=O)c12` : > 100 µM

The molecule `O=C1CCCCCCCCCCC(=O)N2CCOCCOCCN1Cc1cccc(n1)C2` showed TGI equal to > 100 µM

Documented TGI of `COc1cc(C(=O)NC(CCN)(c2ccccc2)c2ccccc2)cc(OC)c1OC` : > 31.6 µM

// TGI value for COC1CC(OC2C(C)OC(OC3C(C)OC(OC4C(C)OC(O[C@H]5CC[C@@]6(C)C(=CC[C@]7(O)[C@@H]6C[C@@H](OC(=O)/C=C(\C)C(C)C)[C@@]6(C)[C@]7(O)CC[C@@]6(O)C(C)=O)C5)CC4OC)CC3OC)CC2OC)OC(C)C1O (stereo partly drawn) : > 12.5 µM

Kindly note the recorded TGI for `C[N+](C)(CCNC(=O)c1cccc2cc3ccccc3nc12)Cc1ccc([N+](=O)[O-])cc1` , which is > 100 µM

Value of measured TGI for the entry `O=P(O)(NCCCl)NCCCl` : > 100 µM

Short answer for CC(=O)O[C@H]1CC2C(C3CCC(C(C)CCC(=O)O)[C@]31C)[C@H](OC(C)=O)C[C@@H]1CC3(CC[C@]21C)OOC1(CC[C@]2(C)C4C[C@H](OC(C)=O)[C@]5(C)C(C(C)CCC(=O)O)CCC5C4[C@H](OC(C)=O)C[C@@H]2C1)OO3 (stereo partly drawn) : TGI was 5.19 µM

Value of measured TGI for the entry `C(#Cc1cnccn1)/C=C\C#Cc1cnccn1` : 42.2 µM
